- Tested on: M. mycetomatis strain I1
- assay: IC50 and MIC determination, CellTiter-Glo, strain I1
- Assay type: cell-based, Madurella mycetomatis
- conditionLabel: Madurella mycetomatis, I1
Where a name gives a salt, the structure may show the parent alone.
propertyName: IC50

Known IC50 results, listed for orientation:
C[C@@H](c1ncncc1F)[C@](O)(Cn1cncn1)c1ccc(F)cc1F; 0.2 µM
Cc1ccc2c(Br)cc(Br)c(OC(=O)c3ccccc3)c2n1; 1.31 µM

I'm hoping you can list IC50 for every compound here, please.
1. CC[C@@H]([C@H](C)O)n1ncn(-c2ccc(N3CCN(c4ccc(OC[C@@H]5CO[C@@](Cn6cncn6)(c6ccc(F)cc6F)C5)cc4)CC3)cc2)c1=O
2. C=C(c1ccccc1OCc1cccc(Cl)c1)n1ccnc1 [Cloconazole HCl]
3. O=C(Nc1cc(C(F)(F)F)cc(C(F)(F)F)c1)c1cc(Cl)ccc1O
4. OCCCNc1cc(-c2ccnc(Nc3cccc(Cl)c3)n2)ccn1

Result:
1: < 0.03 µM; 2: 0.41 µM; 3: 1.68 µM; 4: 0.81 µM

----------
- Tested on: M. mycetomatis strain mm55
- conditionLabel: m. mycetomatis hyphae, 96 h, 2 µM
I'd appreciate it if you could supply % viability values for the items below.
One number for each entry, in %.

CS[C@H]1SC[C@H]2C(=O)N(C)[C@@H](C(C)C)C(=O)OC[C@@H](NC(=O)c3cnc4ccccc4n3)C(=O)N[C@@H](C)C(=O)N(C)[C@@H]1C(=O)N(C)[C@@H](C(C)C)C(=O)OC[C@@H](NC(=O)c1cnc3ccccc3n1)C(=O)N[C@@H](C)C(=O)N2C; 114.7
NC(=O)c1ccc(N(C(N)=O)c2c(F)cccc2F)nc1-c1ccc(F)cc1F; 67.05
CCOP(=S)(OCC)Oc1cc(C)nc(C(C)C)n1 [ONC0003874, dimpylate]; 60.75
O=C(O)C[C@H]1CC[C@H](c2ccc(-c3ccc(Nc4ccc(C(F)(F)F)nc4)cn3)cc2)CC1; 103.8

I'm hoping you can list % viability for every compound here, please.
1. O=C(Nc1nc2cccc(-c3ccc(CN4CCS(=O)(=O)CC4)cc3)n2n1)C1CC1
2. CC(C)(C)c1cc(C(C)(C)C)c(NC(=O)c2c[nH]c3ccccc3c2=O)cc1O

Result:
1: 70.26; 2: 126.9

----------
I'd appreciate it if you could supply IC50 values for the items below.
- Tested on: M. mycetomatis strain mm55
- assay: IC50 and MIC determination, CellTiter-Glo, strain mm55
- Assay type: cell-based, Madurella mycetomatis
- conditionLabel: Madurella mycetomatis, concentration inhibiting 50% of fungal hyphae growth
Structures can show the parent of a compound that is named as a salt.
Give bare numbers, in µM.

CC(=O)N1CCN(c2ccc(OCC3COC(Cn4ccnc4)(c4ccc(Cl)cc4Cl)O3)cc2)CC1 (stereo not drawn); 0.66
Fc1ccc(C(c2ccccc2)(c2ccccc2F)n2ccnc2)cc1 (stereo not drawn); 0.92
CC(C)(C)c1cc(C=C(C#N)C#N)cc(C(C)(C)C)c1O; 1.36
CC(C)(C)c1ccc(S(=O)(=O)/C=C/C#N)cc1; 1.51
Oc1c(Br)cc(Br)c2cccnc12; 1.6

I'm hoping you can list IC50 for every compound here, please.
1. O=C(Nc1cc(C(F)(F)F)cc(C(F)(F)F)c1)c1cc(Cl)ccc1O
2. CCCCC(CC)CNC(=N)NC(=N)NCCCCCCNC(=N)NC(=N)NCC(CC)CCCC (stereo not drawn) [Alexidine dihydrochloride]
3. N#C/C(=C1/SCC(c2ccccc2Cl)S1)n1ccnc1 (stereo not drawn)
4. C/C(=N\NC(=S)N1CCC1)c1ccccn1
5. Clc1ccc(C(Cn2ccnc2)OCc2c(Cl)cccc2Cl)c(Cl)c1 (stereo not drawn) [Isoconazole nitrate (Travogen), Isoconazole nitrate]
6. C[C@@H](c1nc(-c2ccc(C#N)cc2)cs1)[C@](O)(Cn1cncn1)c1ccc(F)cc1F
7. Clc1ccc(C(Cn2ccnc2)OCc2ccsc2Cl)c(Cl)c1 (stereo not drawn)
8. C[C@@H](c1nc(-c2ccc(C#N)cc2)cs1)[C@](O)(Cn1cncn1)c1cc(F)ccc1F

Result:
[1.76, 1.32, 0.04, 1.61, 1.42, 0.17, 1.24, 0.43]

I'm hoping you can list IC50 for every compound here, please.
1. C=C1CCN([C@H](C)[C@](O)(Cn2cncn2)c2ccc(F)cc2F)CC1
2. Oc1c(I)cc(Cl)c2cccnc12

Result:
[0.04, 1.2]

I'm hoping you can list IC50 for every compound here, please.
1. C=C(c1ccccc1OCc1cccc(Cl)c1)n1ccnc1 [Cloconazole HCl]
2. Cc1ccc2c(Br)cc(Br)c(OC(=O)c3ccccc3)c2n1
3. OCCCNc1cc(-c2ccnc(Nc3cccc(Cl)c3)n2)ccn1

Result:
[0.85, 1.25, 1.55]
